# system: CETP (Homo sapiens, UniProt P11597)
# Construct: from tissue; host or cells: human plasma from normal volunteers
# Sequence (P11597 18-493): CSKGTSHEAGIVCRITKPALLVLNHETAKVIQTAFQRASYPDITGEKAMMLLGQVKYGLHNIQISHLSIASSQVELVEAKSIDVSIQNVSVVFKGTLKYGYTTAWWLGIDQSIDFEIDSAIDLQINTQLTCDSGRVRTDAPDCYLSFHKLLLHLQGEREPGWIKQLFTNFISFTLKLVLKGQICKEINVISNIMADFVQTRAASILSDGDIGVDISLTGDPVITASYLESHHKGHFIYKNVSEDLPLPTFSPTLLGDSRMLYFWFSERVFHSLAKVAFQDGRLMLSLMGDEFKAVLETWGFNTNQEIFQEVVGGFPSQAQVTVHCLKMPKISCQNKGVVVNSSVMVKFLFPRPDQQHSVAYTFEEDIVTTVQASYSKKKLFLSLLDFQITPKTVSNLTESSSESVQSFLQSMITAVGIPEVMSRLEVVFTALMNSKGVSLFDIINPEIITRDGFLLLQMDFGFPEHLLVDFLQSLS
# assay_procedure: CETP in vitro assay ([3H]CE-HDL transfer, Amersham kit TRKQ7005; modified protocol in human plasma)
# Type: biochemical
# measurement_conditions: 1 μM compound; multiple values = multiple measurements

{"compound": "CC1(C)OC[C@H](CN2c3cccc(-c4cccc(OC(F)(F)F)c4)c3OC[C@H]2c2cccc(OC(F)(F)C(F)F)c2)O1", "inhibition at 1 µM, %": 20}
{"compound": "CCCN1c2cccc(-c3cccc(OC(F)(F)F)c3)c2OCC1c1cccc(OC(F)(F)C(F)F)c1 (stereo not shown)", "inhibition at 1 µM, %": 38}
{"compound": "COC(=O)NCCN1c2cccc(-c3cccc(OC(F)(F)F)c3)c2OCC1c1cccc(OC(F)(F)C(F)F)c1 (stereo not shown)", "inhibition at 1 µM, %": 2}
{"compound": "CN(CCN1c2cccc(-c3cccc(OC(F)(F)F)c3)c2OCC1c1cccc(OC(F)(F)C(F)F)c1)S(C)(=O)=O (stereo not shown)", "inhibition at 1 µM, %": 0}

* * *

# system: CETP (Homo sapiens, UniProt P11597)
# Construct: from tissue; host or cells: human plasma from normal volunteers
# assay_procedure: CETP in vitro assay ([3H]CE-HDL transfer, Amersham kit TRKQ7005; modified protocol in human plasma)
# Format: biochemical
# measurement_conditions: 1 μM compound; multiple values = multiple measurements

{"compound": "CN1CCN(CCN2c3cccc(-c4cccc(OC(F)(F)F)c4)c3OCC2c2cccc(OC(F)(F)C(F)F)c2)CC1 (stereo not shown) [Compound 31]", "inhibition at 1 µM": "17%"}
{"compound": "O=C(CN1c2cccc(-c3cccc(OC(F)(F)F)c3)c2OCC1c1ccc2c(c1)OC(F)(F)O2)C(F)(F)F (stereo not shown) [Compound 19]", "inhibition at 1 µM": "0%"}
{"compound": "COC(=O)N(C)CCN1c2cccc(-c3cccc(OC(F)(F)F)c3)c2OCC1c1cccc(OC(F)(F)C(F)F)c1 (stereo not shown) [Compound 42]", "inhibition at 1 µM": "8%"}
{"compound": "OC(CN1c2cccc(-c3cccc(OC(F)(F)F)c3)c2OCC1c1ccco1)C(F)(F)F (stereo not shown) [Compound 89]", "inhibition at 1 µM": "17%"}
{"compound": "OCCN1c2cccc(-c3cccc(OC(F)(F)F)c3)c2OCC1c1cccc(OC(F)(F)C(F)F)c1 (stereo not shown) [Compound 23]", "inhibition at 1 µM": "29%"}
{"compound": "O[C@@H](CN1c2cccc(-c3cccc(OC(F)(F)F)c3)c2SC[C@H]1c1cccc(OC(F)(F)C(F)F)c1)C(F)(F)F [Compound 108]", "inhibition at 1 µM": "34%"}
{"compound": "O[C@@H](CN1c2cccc(-c3cc(F)cc(F)c3)c2OC[C@@H]1c1cccc(OC(F)(F)C(F)F)c1)C(F)(F)F [Compound 72]", "inhibition at 1 µM": "100%"}

* * *

Entries and their % Inhibition @ 1 μM values follow.
# system: CETP (Homo sapiens)
# Construct: from tissue; host or cells: human plasma from normal volunteers
# assay_procedure: CETP in vitro assay ([3H]CE-HDL transfer, Amersham kit TRKQ7005; modified protocol in human plasma)
# Assay type: biochemical
# measurement_conditions: 1 μM compound; multiple values = multiple measurements; 1 µM
outcome_measure: % Inhibition @ 1 μM

{"molecule": "O[C@H](CN1c2cccc(-c3cc(C(F)(F)F)cc(C(F)(F)F)c3)c2OC[C@@H]1c1cccc(OC(F)(F)C(F)F)c1)C(F)(F)F", "val": "40%"}
{"molecule": "OC(CN1c2cccc(-c3cccc(OC(F)(F)F)c3)c2OCC1c1cccc(OC(F)(F)C(F)F)c1)C(F)(F)F (single isomer, unassigned) [Compound 2]", "val": "73%"}
{"molecule": "COc1ccsc1C1COc2c(-c3cccc(OC(F)(F)F)c3)cccc2N1CC(O)C(F)(F)F (centres unmarked) [Compound 61]", "val": "3%"}
{"molecule": "CCc1ccc(C2COc3c(-c4cccc(OC(F)(F)F)c4)cccc3N2CC(O)C(F)(F)F)s1 (centres unmarked)", "val": "0%"}
{"molecule": "OC(CN1c2cccc(-c3cccc(OC(F)(F)F)c3)c2OCC1c1ccc(OC(F)(F)C(F)F)cc1)C(F)(F)F (centres unmarked) [Compound 94]", "val": "11%"}
{"molecule": "OC(CN1c2cccc(-c3cccc(OC(F)(F)F)c3)c2OCC1c1cccc(Cl)c1)C(F)(F)F (centres unmarked)", "val": "0%"}
{"molecule": "OC(CN1c2cccc(-c3cccc(OC(F)(F)F)c3)c2OCC1c1ccc(OC(F)(F)F)cc1)C(F)(F)F (centres unmarked) [Compound 97]", "val": "38%"}
{"molecule": "CCc1ccsc1C1COc2c(-c3cccc(OC(F)(F)F)c3)cccc2N1CC(O)C(F)(F)F (centres unmarked)", "val": "12%"}
{"molecule": "C=CCC1COc2c(-c3cccc(OC(F)(F)F)c3)cccc2N1CC(O)C(F)(F)F (centres unmarked) [Compound 51]", "val": "0%"}
{"molecule": "OC(CN1c2cccc(-c3cccc(OC(F)(F)F)c3)c2OCC1c1ccc(OC(F)(F)F)cc1)C(F)(F)F (centres unmarked) [Compound 98]", "val": "10%"}
{"molecule": "OC(CF)CN1c2cccc(-c3cccc(OC(F)(F)F)c3)c2OCC1c1cccc(OC(F)(F)C(F)F)c1 (centres unmarked)", "val": "50%"}
{"molecule": "Cc1ccsc1C1COc2c(-c3cccc(OC(F)(F)F)c3)cccc2N1CC(O)C(F)(F)F (centres unmarked) [Compound 86]", "val": "2%"}
{"molecule": "O[C@@H](CN1c2cccc(-c3cc(F)c(F)c(F)c3)c2OC[C@@H]1c1cccc(OC(F)(F)F)c1)C(F)(F)F", "val": "96%"}
{"molecule": "OC(CN1c2cccc(-c3cccc(OC(F)(F)F)c3)c2OCC1c1ccccc1)C(F)(F)F (centres unmarked) [Compound 95]", "val": "43%"}
{"molecule": "OC(CN1c2cccc(-c3cccc(OC(F)(F)F)c3)c2OCC1c1ccccc1)C(F)(F)F (centres unmarked) [Compound 96]", "val": "1%"}
{"molecule": "CCCN1c2cccc(-c3cccc(OC(F)(F)F)c3)c2OCC1c1cccc(OC(F)(F)C(F)F)c1 (centres unmarked)", "val": "39%"}
{"molecule": "Cc1ccsc1C1COc2c(-c3cccc(OC(F)(F)F)c3)cccc2N1CC(O)C(F)(F)F (centres unmarked) [Compound 85]", "val": "20%"}
